# test target: C-src kinase (Homo sapiens)
# Construct: made in house; host or cells: baculovirus infected insect cells
# Sequence (P12931 whole entry): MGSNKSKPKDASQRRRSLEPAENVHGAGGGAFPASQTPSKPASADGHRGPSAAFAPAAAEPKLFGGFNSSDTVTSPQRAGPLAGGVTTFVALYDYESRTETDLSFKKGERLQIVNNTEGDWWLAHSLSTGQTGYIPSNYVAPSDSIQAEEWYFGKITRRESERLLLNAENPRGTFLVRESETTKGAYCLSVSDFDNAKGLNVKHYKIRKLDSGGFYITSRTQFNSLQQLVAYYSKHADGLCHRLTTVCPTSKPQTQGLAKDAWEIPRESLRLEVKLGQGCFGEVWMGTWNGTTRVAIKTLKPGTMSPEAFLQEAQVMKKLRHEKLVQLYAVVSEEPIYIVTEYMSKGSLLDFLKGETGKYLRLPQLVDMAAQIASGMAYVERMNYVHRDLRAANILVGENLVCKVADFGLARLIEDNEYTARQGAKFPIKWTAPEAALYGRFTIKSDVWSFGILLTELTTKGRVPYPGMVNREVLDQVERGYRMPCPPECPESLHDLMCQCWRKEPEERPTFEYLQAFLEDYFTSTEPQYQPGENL
# method notes: C-src kinase assay (poly GluTyr substrate)
# Assay type: biochemical
# condition details: read-out: C-src TK IC50
measurement name: IC50 (nM)

Recorded results for 6 compounds are shown here.
- substance smiles: "Nc1ncc2cc(-c3c(Cl)cccc3Cl)c(=O)n(Cc3ccccc3)c2n1"
  IC50, nM: 158
- substance smiles: "Nc1ncc2cc(-c3c(Cl)cccc3Cl)c(=O)n(Cc3c(Cl)cccc3Cl)c2n1"
  IC50, nM: 41
- substance smiles: "COc1ccc(CCNc2ncc3cc(-c4c(Cl)cccc4Cl)c(=O)n(C)c3n2)cc1OC"
  IC50, nM: 2540
- substance smiles: "CCNc1ncc2cc(-c3c(Cl)cccc3Cl)c(=O)n(C)c2n1"
  IC50, nM: 588
- substance smiles: "CC(C)Cn1c(=O)c(-c2c(Cl)cccc2Cl)cc2cnc(N)nc21"
  IC50, nM: 890
- substance smiles: "Cn1c(=O)c(-c2c(Cl)cccc2Cl)cc2cnc(NCCO)nc21"
  IC50, nM: 325

(a) Cn1c(=O)c(-c2c(Cl)cccc2Cl)cc2cnc(NCc3ccccn3)nc21
(b) CN(C)CCCn1c(=O)c(-c2c(Cl)cccc2Cl)cc2cnc(N)nc21
(c) Cn1c(=O)c(-c2c(Cl)cccc2Cl)cc2cnc(NC(=O)CCC(=O)O)nc21
Problem: Place the items in sequence of falling IC50. Provide your answer as the labels ordered per the instruction.
Result: c, a, b

(1) Cn1c(=O)c(-c2c(Cl)cccc2Cl)cc2cnc(Nc3cccc(Br)c3)nc21
(2) COC(=O)Cc1ccc(Nc2ncc3cc(-c4c(Cl)cccc4Cl)c(=O)n(C)c3n2)cc1
(3) Cc1ccccc1-c1cc2cnc(N)nc2n(C)c1=O
Problem: Rank by IC50 (largest to smallest). Form entry: ranked labels (order as requested).
Result: 3, 1, 2
(3: 3920 nM, 1: 59 nM, 2: 23 nM)
